- SYSTEM: N-domain fragment of calmodulin (CaMN, residues 1-75) (paramecium, UniProt P07463 2-76)
- METHOD SUMMARY: other fluorescence titration
MEASURE: Kd

stdin: Entry KRKQEEVSAIVIQRAYRRYLLKQKVKK (domain or fragment) [NaV1.2 IQ biosensor (rat NaV1.2 residues 1901-1927 flanked by YFP and CFP)] has what Kd?
stdout: > 100 µM

Each recorded value in this set is attributed to paper PMC5503752.
